# System: SF-268
# assay-method-text: DTP human tumor cell line one-dose prescreen, SF-268
# Format: cell-based
# condition-label: Concentration (100 μm), CNS SF-268, test/control (T/C)
reported-property: Percentage Growth CNS SF-268

>  <chemical-smiles>
Clc1ccc(-c2c(Cl)nc(Cl)nc2-c2ccccc2)cc1

>  <recorded-measurement>
0

$$$$
>  <chemical-smiles>
CS(=O)(=O)c1ccc(-c2nc(C(F)(F)F)nc(Cl)c2-c2ccccc2)cc1

>  <recorded-measurement>
3

$$$$
>  <chemical-smiles>
CSc1ccc(-c2c(Cl)nc(Cl)nc2-c2ccccc2)cc1

>  <recorded-measurement>
4

$$$$
>  <chemical-smiles>
Cc1ccc(-c2nc(Cl)nc(Cl)c2-c2ccccc2)cc1

>  <recorded-measurement>
6

$$$$
>  <chemical-smiles>
CS(=O)(=O)c1ccc(-c2nc(C(F)(F)F)nc(Cl)c2-c2ccc(F)cc2)cc1

>  <recorded-measurement>
12

$$$$
>  <chemical-smiles>
COc1ccc(-c2c(Cl)nc(Cl)nc2-c2ccccc2)cc1

>  <recorded-measurement>
2

$$$$
>  <chemical-smiles>
Clc1ccc(-c2nc(Cl)nc(Cl)c2-c2ccccc2)cc1

>  <recorded-measurement>
1

$$$$

Sourced from patent US7317014B2
